# Test system: SK-MEL-28
# method_notes: NCI tumour cell line growth inhibition, 48 h
Active and inactive are the calls of the source. Cut-off read from the data, not from the text of the source: active = GI50 up to about 1.1 µM and inactive = higher.
Classes used: active, inactive

compound: CC(/C=N/N=C1NCCCCN1)=N\N=C1NCCCCN1
cat: inactive

compound: COC(=O)C1=C(OC)C(=P2(c3ccccc3)CC(c3ccccc3)=C2c2ccccc2)C(C(=O)OC)=C1C(=O)OC (centres undefined)
cat: inactive

compound: C[N+](C)(C)CC1CCCCC1=O (centres undefined)
cat: inactive

compound: N#Cc1c(N)[nH]c2ccc(Sc3ccccc3)cc12
cat: active

compound: c1cc(-c2ccc(Oc3ccc(-c4ccncc4)cc3)cc2)ccn1
cat: inactive

compound: COC(=O)c1c(O)ccc2c1c1c(n2Cc2ccccc2)C(=O)c2ccccc2C1=O
cat: inactive

compound: C[N+]1(CCNP(=S)(NCC[N+]2(C)Cc3c(ccc4c3OCO4)C3C2c2cc4c(cc2C[C@@H]3O)OCO4)NCC[N+]2(C)Cc3c(ccc4c3OCO4)C3C2c2cc4c(cc2C[C@@H]3O)OCO4)Cc2c(ccc3c2OCO3)C2C1c1cc3c(cc1C[C@H]2O)OCO3 (some centres undefined)
cat: active

compound: Clc1ncc(Cl)c(Cl)n1
cat: inactive

compound: COc1ccc(C2[C@@H](Cl)C(=O)N2c2ccc(OC)cc2)cc1 (some centres undefined)
cat: inactive
